System: Echinochloa crus-galli
Assay text: Post-emergence herbicidal effect
Format: in vivo
Stated conditions: 80 g/ha, visual scoring after about 3 weeks
From the text: Seeds of monocotyledonous and dicotyledonous weed and crop plants are laid out in sandy loam in wood-fiber pots, covered with soil and cultivated in a greenhouse under good growth conditions. […] After the trial plants have been left to stand in a greenhouse under optimal growth conditions for about 3 weeks, the efficacy of the formulations is scored visually in comparison to untreated controls (herbicidal action in percent (%): 100% efficacy=the plants have died, 0% efficacy=like control plants).
Reported post-emergence efficacy ECHCG values for a set of molecules

Molecule	post-emergence efficacy ECHCG
CC(=O)c1cnc(N[C@H]2c3cc(C)ccc3C[C@@H]2C)nc1C [1.26]	90%
Cc1ccc2c(c1)[C@H](Nc1ncc3c(n1)CC(C)(C)CC3=O)[C@@H](C)C2 [2.45]	100%
Cc1ccc2c(c1)[C@H](Nc1ncc3c(n1)CC(C)CC3=O)[C@@H](C)C2 (stereo partly drawn) [2.44]	100%
